assay remarks: NCI Yeast Anticancer Drug Screen. Data for the rad50 strain (AID 155);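 also: 0% = growth of vehicle-only cultures of the same strain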
assay context: S. cerevisiae rad50 strain growth inhibition; at 50.0 µM (retest, dose inferred, filed as 5.0); active compounds read high
Compounds without any hit were thinned out: in the full panel of roughly 79,000, 15% have a hit.
observed property: growth inhibition (%)
Please reply with the bare figure in % and do not write the unit itself.

>>> reported("COC(=O)C1=C(C(=O)OC)C2OC1c1cc3ccccc3cc12")
100
>>> reported("[Cl][Pt+2][Cl].[NH-]C(c1ccccc1)C([NH-])c1ccccc1 (stereo not given)")
10
>>> reported("O=[N+]([O-])c1cc(S(=O)(=O)F)ccc1S")
89
>>> reported("CC(=O)[O-].CC(=O)[O-].O=C(N/N=C/c1cc(Cl)cc(Cl)c1[OH2+])c1ccncc1.[Mn+2]")
96

Now consider the entry below.
Query :: Suppose we examine the molecule "O=c1c(O)c(-c2ccccc2)oc2ccccc12.[Pb]" ; what growth inhibition value has been reported?
Result :: 97

----------
assay remarks: NCI Yeast Anticancer Drug Screen. Data for the mec2-1 strain (AID 157)
assay context: S. cerevisiae mec2-1 strain, at 50.0 µM (retest, dose inferred, filed as 5.0)
The panel holds about 79,000 compounds, 15% with a hit somewhere; the sample as a whole holds those more often. Active and inactive are the calls of the source. No stated cut-off is given here; in the data, active means growth inhibition above about 70%; inactive means the rest.
Returns: one label drawn from active, inactive

Query :: I would be grateful if you could indicate the recorded call for O=C(c1ccc(Br)cc1)C1C(c2ccccc2)N1C1CCCCC1 (stereo not drawn) .
Result :: active

Query :: I would be grateful if you could indicate the recorded call for "CCCCCNC(=O)c1c(O)[nH]c(=S)[nH]c1=O" .
Result :: active

Query :: I would be grateful if you could indicate the recorded call for "O=c1oc2ccccc2c(O)c1C1c2c(c3ccccc3oc2=O)Oc2c1c(=O)oc1ccccc21" .
Result :: active

Query :: I would be grateful if you could indicate the recorded call for "Sc1ccc(Cl)cc1" .
Result :: inactive

----------
assay remarks: NCI Yeast Anticancer Drug Screen. Data for the mec2-1 strain (AID 157)
assay context: S. cerevisiae mec2-1 strain, at 33.0 µM
The panel holds about 79,000 compounds, 15% with a hit somewhere; the sample as a whole holds those more often. Activity calls are given as the source filed them. Rule as the data show it: active = growth inhibition above about 70%; inactive = the rest.
Returns: one label drawn from active, inactive

>>> class_assignment("O=C(Nc1cc(Cl)ccc1Cl)C(Cl)(Cl)Cl")
"inactive"

Query :: I would be grateful if you could indicate the recorded call for CC1CCC2(NC1)OC1CC3C4CCC5CC(OC6OC(CO)C(OC7OC(CO)C(O)C(OC8OCC(O)C(O)C8O)C7OC7OC(CO)C(O)C(O)C7O)C(O)C6O)CCC5(C)C4CCC3(C)C1C2C (stereo not given) .
Result :: inactive

----------
assay remarks: NCI Yeast Anticancer Drug Screen. Data for the rad50 strain (AID 155);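 also: 0% = growth of vehicle-only cultures of the same strain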
assay context: S. cerevisiae rad50 strain growth inhibition; at 5.0 µM (retest, dose inferred, filed as 0.5)
Compounds without any hit were thinned out: in the full panel of roughly 79,000, 15% have a hit. Activity calls are given as the source filed them. No stated cut-off is given here; in the data, active means growth inhibition above about 70%; inactive means the rest.
Returns: one label drawn from 1 (active), 0 (inactive)

>>> class_assignment("[C](#Cc1ccccc1)[Hg][C]#Cc1ccccc1")
0

Query :: I would be grateful if you could indicate the recorded call for "Cc1nc2c(Br)cc(Br)cc2c(=O)n1-c1ccccc1N" .
Result :: 0

----------
assay remarks: NCI Yeast Anticancer Drug Screen. Data for the bub3 strain (AID 167)
assay context: S. cerevisiae bub3 mutant strain, at 33.0 µM
Method: Growth inhibition of yeast strains with defined genetic alterations is measured as a screen for potential anti-cancer activity. Selected strains with alterations in DNA damage repair or cell cycle control were exposed to compounds and growth inhibition was measured relative to vehicle treated controls. The strain used in this assay is bub3
Compounds without any hit were thinned out: in the full panel of roughly 79,000, 15% have a hit. Calls of active or inactive are those of the source. Cut-off read from the data, not from the text of the source: active = growth inhibition above about 70%; inactive = the rest.
Returns: one label drawn from 1 (yes) for active, 0 (no) for inactive

>>> class_assignment("C/C(=N\\O)c1ccc2ccc3ccccc3c2c1")
"1 (yes)"
>>> class_assignment("O=C(O)CCCc1cc(I)c(N(CCCl)CCCl)c(I)c1")
"1 (yes)"
>>> class_assignment("Cc1nc2ccccc2cc1C[N+]12CN3CN(CN(C3)C1)C2")
"0 (no)"
>>> class_assignment("C[C@]12CCC(=O)C=C1CC[C@@H]1C2CC[C@@]2(C)C1CC[C@@H]2OC(=O)C12OC1CCC2=O (some centres undefined)")
"1 (yes)"
>>> class_assignment("CCC(=O)OC1CCn2c1nc1c2C(=O)C(C)=C(N2CC2)C1=O (centres undefined)")
"0 (no)"

Query :: I would be grateful if you could indicate the recorded call for CC1(Cl)CC(C)(/C=C/Cl)C(Cl)CC1Cl (centres undefined) .
Result :: 0 (no)

Query :: I would be grateful if you could indicate the recorded call for "CN(C)CCSC1=Nc2ccc(Cl)cc2C(c2ccccc2Cl)=NC1" .
Result :: 0 (no)

Query :: I would be grateful if you could indicate the recorded call for "Nc1ccccc1C(=O)OCCc1ccccc1" .
Result :: 0 (no)

Query :: I would be grateful if you could indicate the recorded call for CCCCCCCCCCCCCCCCP(=O)(O)OP(=O)(O)OCC1OC(n2ccc(N)nc2=O)C(O)C1O (centres undefined) .
Result :: 0 (no)

Query :: I would be grateful if you could indicate the recorded call for OCC(O)C(O)CO (centres undefined) (tested in a mixture with another compound) .
Result :: 0 (no)

Query :: I would be grateful if you could indicate the recorded call for "O=C(O)c1ccccc1.[Ag]" .
Result :: 1 (yes)

Query :: I would be grateful if you could indicate the recorded call for CCOC(=O)C1=C(C(=O)OCC)C2(c3ccccc3)N(O1)c1ccccc1C2(C)C (centres undefined) .
Result :: 0 (no)

Query :: I would be grateful if you could indicate the recorded call for CCOC(=O)C1([Se]c2ccccc2)CCCC1=O (centres undefined) .
Result :: 0 (no)

Query :: I would be grateful if you could indicate the recorded call for "CSC(=Nc1ccccc1)N(c1ccccc1)c1nc(=[N+](C)C)ss1" .
Result :: 1 (yes)

Query :: I would be grateful if you could indicate the recorded call for "O=C1C=CC(=O)C1(Br)Br" .
Result :: 1 (yes)

Query :: I would be grateful if you could indicate the recorded call for "BrCC[N+]12CC[N+](CCBr)(CC1)C2" .
Result :: 1 (yes)

Query :: I would be grateful if you could indicate the recorded call for "O=C(O)CCCOc1cc(Cl)c(Cl)cc1Cl" .
Result :: 0 (no)

Query :: I would be grateful if you could indicate the recorded call for "Oc1c(Br)cc(Br)cc1Br" .
Result :: 0 (no)

Query :: I would be grateful if you could indicate the recorded call for "CO[C@H](/C(C)=C/C=C/C(C)=C/c1coc(C)n1)[C@H](C)[C@H]1C[C@@H](O)[C@@]2(C)O[C@H]2/C=C/[C@@H](C)[C@@H]2C[C@@H](CC(=O)O2)C[C@H]2O[C@@H]2C(=O)O1" .
Result :: 1 (yes)

----------
assay remarks: NCI Yeast Anticancer Drug Screen. Data for the mec2-1 strain (AID 157)
assay context: S. cerevisiae mec2-1 strain, at 11.0 µM
The panel holds about 79,000 compounds, 15% with a hit somewhere; the sample as a whole holds those more often. Calls of active or inactive are those of the source. No stated cut-off is given here; in the data, active means growth inhibition above about 70%; inactive means the rest.
Returns: one label drawn from active, inactive

Query :: I would be grateful if you could indicate the recorded call for "N#Cc1cc(N(CCCl)CCCl)c([N+](=O)[O-])cc1[N+](=O)[O-]" .
Result :: inactive

Query :: I would be grateful if you could indicate the recorded call for C[C@@]12CCC(=O)C=C1CC[C@H]1C2=CC[C@]2(C)C1CC[C@@]2(C)O (stereo partly specified) .
Result :: inactive

Query :: I would be grateful if you could indicate the recorded call for COC(=O)c1c(C)ccc2c(O)c3c(cc12)C(=O)c1c2c(cc(O)c1C3=O)C1(C)OC(C)(O2)C(O)C(N(C)C)C1O (stereo unspecified) .
Result :: active

Query :: I would be grateful if you could indicate the recorded call for "Cc1ccc2nc3sc(=O)sc3nc2c1" .
Result :: active

Query :: I would be grateful if you could indicate the recorded call for "Nc1nnc(N)n1-n1c(N)nnc1N" .
Result :: inactive

----------
assay remarks: NCI Yeast Anticancer Drug Screen. Data for the cln2 rad14 strain (AID 165);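 also: 0% = growth equal to vehicle treated cultures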
assay context: S. cerevisiae cln2 rad14 strain, at 50.0 µM
About 79,000 compounds went through this panel and 15% of them were active in at least one assay; those are over-represented in the sample as a whole. Activity calls are given as the source filed them. Cut-off read from the data, not from the text of the source: active = growth inhibition above about 70%; inactive = the rest.
Returns: one label drawn from active, inactive

Past entries and their recorded results:
>>> class_assignment("COc1ccc(OC)c(C=O)c1")
"inactive"
>>> class_assignment("COC1NC(=O)NC(=O)C1=[N+]=[N-] (stereo not given)")
"inactive"
>>> class_assignment("c1ccc(C(C(=Nc2ccc(Cc3ccc(N=C(C(c4ccccc4)c4ccccc4)N4CC4)cc3)cc2)N2CC2)c2ccccc2)cc1")
"active"

Query :: I would be grateful if you could indicate the recorded call for "O=c1ssc(Cl)c1Cl" .
Result :: active

Query :: I would be grateful if you could indicate the recorded call for "c1ccc(C[As+](c2ccccc2)(c2ccccc2)c2ccccc2)cc1" .
Result :: active

Query :: I would be grateful if you could indicate the recorded call for "COc1ccc(C2N(Cc3ccc(N(CCCl)CCCl)cc3C)CCCN2Cc2ccc(N(CCCl)CCCl)cc2C)cc1" .
Result :: active

Query :: I would be grateful if you could indicate the recorded call for "CN(N=O)C(=O)NNC(=O)N(C)N=O" .
Result :: inactive

Query :: I would be grateful if you could indicate the recorded call for CCC[CH2][Sn]1([CH2]CCC)[O]CC(CN(C)Cc2ccccc2)[O]1 (stereo not given) .
Result :: active

Query :: I would be grateful if you could indicate the recorded call for "O=C1C(F)=C(N2CC2)C(=O)C(F)=C1N1CC1" .
Result :: active

Query :: I would be grateful if you could indicate the recorded call for CC1=C[C@H]2O[C@@H]3C[C@H]4OC(=O)/C=C\C=C\C(C(C)O)OCC(O)C(C)CC(=O)OC[C@@]2(C[C@@H]1O)[C@]4(C)[C@@]31CO1 (stereo not given in full) .
Result :: active
